Assay: Pharmacokinetic study in pigs (plasma concentration by LC-MS)
Assay type: in vivo, pig
Settings: both sexes, Swiss large white, pig, plasma, iv, 4 mg/kg, intravenous administration, 15 min, individual pigs and analyses, read-out: Plasma conc.
Starred links: 1 amine or outer side, 2 acyl side, 3 side chain; linkers in the order of their positions; H or OH if unused. Positions of bridges follow the written chain, without caps; N, C: chain ends. Non-standard residues stand in square brackets, D forms with d. Residues, ends and D or L forms follow the SMILES beside them. TATA = O=C(CC[*:1])N1CN(C(=O)CC[*:2])CN(C(=O)CC[*:3])C1; Phe(4-F) = N[C@@H](Cc1ccc(F)cc1)C(=O)O; β3hR = N=C(N)NCCC[C@H](N)CC(=O)O

Molecule | level at time molar at […], nM
CC(C)C[C@@H]1NC(=O)[C@H](CCC(N)=O)NC(=O)[C@H](Cc2c[nH]cn2)NC(=O)[C@@H]2CSCCC(=O)N3CN(CN(C3)C(=O)CCSC[C@H](NC(=O)[C@@H](CO)NC(=O)[C@H](N)CCCNC(=N)N)C(=O)N[C@@H](Cc3ccc(F)cc3)C(=O)N[C@@H](CCCNC(=N)N)C(=O)N[C@@H](CC(C)C)C(=O)N3CCC[C@H]3C(=O)N2)C(=O)CCSC[C@@H](C(N)=O)NC(=O)C[C@H](CCCNC(=N)N)NC1=O [FXII900] (H-[dR][dS]C[Phe(4-F)]RLPCHQL[β3hR]C-NH2; linker 3-8-13 via TATA) | 2710
